target: T1, Human chemokine receptor CXCR4 (human, UniProt P61073 1-352); assay: competition with [125I]SDF-1α, human CXCR4 membranes (Chem-1 cells)
T1 construct: whole, on cells; Used as membranes (0.5 ug membrane protein) of Chem-1 cells that express the receptor; also called C-X-C chemokine receptor type 4; fusin
T1 sequence (P61073 whole entry): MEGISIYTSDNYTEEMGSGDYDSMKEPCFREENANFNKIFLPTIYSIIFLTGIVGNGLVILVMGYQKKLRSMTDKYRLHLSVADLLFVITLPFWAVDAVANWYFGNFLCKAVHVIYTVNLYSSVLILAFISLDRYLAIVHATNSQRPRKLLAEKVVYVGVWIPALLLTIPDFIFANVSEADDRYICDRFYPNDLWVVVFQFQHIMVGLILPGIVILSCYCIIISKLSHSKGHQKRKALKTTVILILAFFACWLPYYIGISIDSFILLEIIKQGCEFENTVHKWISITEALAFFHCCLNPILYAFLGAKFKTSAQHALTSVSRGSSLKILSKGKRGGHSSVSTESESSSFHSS
Bridge positions count the residues as written; N and C are the ends. Square brackets hold non-standard residues; d marks the D form. * marks the point of attachment. 2Nal = N[C@@H](Cc1ccc2ccccc2c1)C(=O)O; hCys = N[C@@H](CCS)C(=O)O; PhAc = O=C(Cc1ccccc1)*; Bz = O=C(c1ccccc1)*; Mpa = O=C(O)CCS; iPr = CC(C)*
Lab note: cut-off is 0.2 nM. Strictly less in Binding Kb is Met. Exactly 0.2 nM or more is Not met.

Look over these answered cases.
Ac-CYK(iPr)[dR][2Nal]GCK(iPr)G-NH2 (linker 1-7 via 1,2‑bisbromomethyl benzene; also: acetate salt, Acetate salt) [MLB-032] ... Met
[Mpa]YK(iPr)[dR][2Nal]GCK(iPr)G-NHEt (disulfide 1-7; also: acetate salt, Synthetic cyclic peptide, acetate salt; also called MLB-014) [Cyclo[Mpa-Tyr-Lys(iPr)-(D-Arg)-2Nal-Gly-Cys]-Lys(iPr)-Gly-NH(Et)] ... Met
PhAc-[hCys]YK(iPr)[dR][2Nal]GCK(iPr)G-NH2 (disulfide 1-7; also: acetate salt, Synthetic cyclic peptide, acetate salt; also called MLB-025) [Phenylacetyl-cyclo[hCys-Tyr-Lys(iPr)-(D-Arg)-2Nal-Gly-Cys]-Lys(iPr)-Gly-NH2] ... Not met
Ac-CYK(iPr)[dR][2Nal]GCK(iPr)G-NH2 (linker 1-7 via 1,3‑bisbromomethyl benzene; also: acetate salt, Acetate salt) [MLB-033] ... Not met

Let us examine a further case.
Binding Kb strictly < 0.2 nM for this binder? Bz-CYK(iPr)[dR][2Nal]G[hCys]K(iPr)G-NH2 (disulfide 1-7; also: acetate salt, Synthetic cyclic peptide, acetate salt; also called MLB-022) [Benzoyl-cyclo[Cys-Tyr-Lys(iPr)-(D-Arg)-2Nal-Gly-hCys]-Lys(iPr)-Gly-NH2]
Not met
